target: T1, Human Tau 2N4R, wild type, recombinant full length (human, UniProt P10636 2-758); assay: SPR BIAcore, mAb captured by anti-human IgG, Tau flowed, 1:1 Langmuir
T1 construct: Full length 2N4R isoform; monomer in SPR and ELISA; heparin-induced aggregates or seeds in the functional assays; also called Tau441; Tau-441
T1 sequence (P10636 other isoform, or with tags, fused parts or gaps limits assumed): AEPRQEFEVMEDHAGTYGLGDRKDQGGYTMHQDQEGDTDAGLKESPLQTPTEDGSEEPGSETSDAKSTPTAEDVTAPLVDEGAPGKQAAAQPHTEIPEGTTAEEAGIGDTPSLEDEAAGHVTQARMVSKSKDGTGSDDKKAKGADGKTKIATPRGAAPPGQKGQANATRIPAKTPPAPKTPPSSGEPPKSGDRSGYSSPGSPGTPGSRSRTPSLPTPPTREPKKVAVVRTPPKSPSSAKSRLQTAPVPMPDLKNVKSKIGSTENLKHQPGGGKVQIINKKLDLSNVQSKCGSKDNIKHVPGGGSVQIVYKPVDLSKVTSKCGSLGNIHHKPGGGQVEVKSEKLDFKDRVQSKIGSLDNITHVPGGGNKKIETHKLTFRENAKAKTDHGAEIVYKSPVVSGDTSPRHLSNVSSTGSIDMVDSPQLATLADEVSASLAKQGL
Catalogue of binders with associated kon
Could you give me the number in M⁻¹ s⁻¹? Just the number is fine.

Worked cases, kon given:
1) 7G6-HCzu13-LCzu12 (antibody, human IgG1, kappa, V domains shown, humanized, human IgG1 kappa) VH: EVQLLESGGGLVQPGGSLRLSCAASGYTFTTYWITWVRQAPGKGLEWVGDIYPGSSICNYADSVKGRFTISVDNSKSTAYLQMNSLRAEDTAVYYCAREDGYDAWFAYWGQGTLVTVSS VL: DVQMTQSPSSLSASVGDRVTITCRSSQSILHSNGNTYLEWYQQKPGKAPKLLICKVSNRFSGVPSRFSGSGSGTDFTLTISSLQPEDFATYYCFQGSHVPFTFGQGTKLEIKR | 1.42e+06
2) 7G6-HCzu12-LCzu16 (antibody, human IgG1, kappa, V domains shown, humanized, human IgG1 kappa) VH: EVQLLESGGGLVQPGGSLRLSCAASGYTFTTYWITWVRQAPGKGLEWVGDIYPGSSICNYNEKFKSRFTISVDNSKSTAYLQMNSLRAEDTAVYYCAREDGYDAWFAYWGQGTLVTVSS VL: DVQMTQSPSSLSASVGDRVTITCRSSQSIVHSNGNTYLEWYQQKPGKAPKLLISKVSNRFSGVPSRFSGSGSGTDFTLTISSLQPEDFATYYCFQGSHVPFTFGQGTKLEIKR | 1.49e+06

Req: Consider the binder 7G6-HCzu14-LCzu12 (antibody, human IgG1, kappa, V domains shown, humanized, human IgG1 kappa) VH: EVQLLESGGGLVQPGGSLRLSCAASGYTFTTYWITWVRQAPGKGLEWVGDIYPGSSICNYADKFKGRFTISVDNSKSTAYLQMNSLRAEDTAVYYCAREDGYDAWFAYWGQGTLVTVSS VL: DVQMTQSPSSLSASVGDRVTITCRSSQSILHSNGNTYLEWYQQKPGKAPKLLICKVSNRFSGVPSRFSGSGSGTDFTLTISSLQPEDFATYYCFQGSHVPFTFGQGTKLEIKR and give its measured kon.
Resp: 1.46e+06

Req: What does the record list as kon for 7G6-HCzu17-LCzu12 (antibody, human IgG1, kappa, V domains shown, humanized, human IgG1 kappa) VH: EVQLLESGGGLVQPGGSLRLSCAASGYTFTTYWITWVRQAPGKGLEWVSDIYPGSSICNYNEKFKSRFTISVDNSKNTLYLQMNSLRAEDTAVYYCAREDGYDAWFAYWGQGTLVTVSS VL: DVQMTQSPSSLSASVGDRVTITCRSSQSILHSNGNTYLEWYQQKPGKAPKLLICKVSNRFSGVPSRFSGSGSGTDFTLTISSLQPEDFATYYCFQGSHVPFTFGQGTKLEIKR ?
Resp: 1.7e+06
